System Tested: human cathepsin B (Homo sapiens, UniProt P07858)
Test Name: fluorogenic Z-RR-AMC hydrolysis assay with recombinant enzyme, without and with […] Triton X-[…] with detergent
pIC50: −log10 of the molar value.
Reported Endpoint: pIC50

Cc1cc2nc3c(=O)[nH]c(=O)nc-3n(C[C@H](O)[C@H](O)[C@H](O)CO)c2cc1C	4.92
